# GI50 values compiled below
Tested on: SK-OV-3
Assay: NCI tumour cell line growth inhibition, 48 h
Active and inactive are the calls of the source. Rule as the data show it: active = GI50 up to about 1.1 µM and inactive = higher.

Look over these answered cases.
The reported value for CC1=C2c3ccccc3N(S(=O)(=O)c3ccccc3)[C@H]2[C@H](C(=O)N2C3CC4CC[C@@]3(CS2(=O)=O)C4(C)C)CC1 (some centres not stated) in terms of GI50 is 22.1 µM (inactive)

The reported value for "CC(=O)OCc1ccc(O)c(C=O)c1" in terms of GI50 is > 100 µM (inactive)

The reported value for "COc1c(OC)c(OC)c(-c2cc(=O)c3c(OC)c(OC)c(OC)c(OC)c3o2)c(OC)c1OC" in terms of GI50 is 71.1 µM (inactive)

The reported value for CC1(C)CNCC(C)(OCc2ccccc2)C(=O)NC(C)(C)CNCC(C)(OCc2ccccc2)C(=O)N1 (configuration not stated) in terms of GI50 is > 10 µM (inactive)

The reported value for "O=C1C(Cl)=C(Cl)C(=O)N1c1ccc(Cl)c(Cl)c1Cl" in terms of GI50 is > 100 µM (inactive)

Others:
The reported value for COc1cc(CC2C(=O)OCC2[C@@H](OC(C)=O)c2ccc3c(c2)OCO3)c(Br)c(OC)c1OC (some centres not stated) in terms of GI50 is > 100 µM (inactive)

The reported value for "CC(=O)Oc1ccc2c(c1)O/C(=C\c1ccc(O)cc1)C2=O" in terms of GI50 is > 100 µM (inactive)

The reported value for "O=C(/C=C/c1cc2ccccc2o1)N1CCN(c2ccccn2)CC1" in terms of GI50 is > 100 µM (inactive)

The reported value for "S=c1c2ccccc2c(=S)n2n1CC=CC2" in terms of GI50 is > 100 µM (inactive)

The reported value for "O=C1c2ccccc2-c2c1c(-c1ccc(F)cc1)nc1ccc3ccccc3c21" in terms of GI50 is > 100 µM (inactive)

The reported value for "c1cc(NC2=NCCO2)c2c(c1)OCO2" in terms of GI50 is > 100 µM (inactive)

The reported value for "COc1cn2c(cc1=O)COc1ccc(-c3ccccc3)cc1-2" in terms of GI50 is > 73.8 µM (inactive)

The reported value for "O=C1NC(SSC2=NNC3(C(=O)N2)c2ccccc2-c2ccccc23)=NNC12c1ccccc1-c1ccccc12" in terms of GI50 is > 10 µM (inactive)

The reported value for CC1N[B@@-](C)(c2ccc(C(F)(F)F)cc2)OC1c1ccccc1 (some centres not stated) in terms of GI50 is > 100 µM (inactive)

The reported value for "N#Cc1c(N2CCCC2)ncn(Cc2ccccc2)c1=O" in terms of GI50 is > 100 µM (inactive)

The reported value for COc1cccc(N2C(=O)CSC2c2cc(OC)c(OC)c(OC)c2)c1 (configuration not stated) in terms of GI50 is 26.7 µM (inactive)

The reported value for CC(NC(=O)CNP(=O)(c1ccccc1)c1ccccc1)C(=O)NC(Cc1ccccc1)C(=O)OCc1ccccc1 (configuration not stated) in terms of GI50 is 21 µM (inactive)

The reported value for O=C(O)C1CCCN1Cc1c[nH]c2ccccc12 (configuration not stated) in terms of GI50 is > 100 µM (inactive)

The reported value for CCCCCCCCCCCCCCCCCCNc1ccn(C2OC(COP(=O)(O)O)C(O)C2O)c(=O)n1 (configuration not stated) in terms of GI50 is > 100 µM (inactive)

The reported value for COc1ccc(/C=C2\CCC(C)C3=C2N=c2s/c(=C/c4cccc(Br)c4)c(=O)n2C3c2ccc(OC)c(OC)c2)cc1OC (configuration not stated) in terms of GI50 is > 100 µM (inactive)

The reported value for "COc1cc(Br)c(OC)c2c(OC)cc(C)cc12" in terms of GI50 is > 100 µM (inactive)

The reported value for "Cc1c2c(n(Cc3ccccn3)c1C)NN=C(C#N)S2(=O)=O" in terms of GI50 is > 100 µM (inactive)
